Hello, the source for this data is the supplement of paper PMC4862054, in case you need it.

Tested on: DU-4475
Assay Remarks: normalised response (% of control), CellTiter-Glo; higher = more viable cells (100 = DMSO, 0 = benzethonium chloride kill control)
Measurement Setup: incubation time: 72 h
Answer each item with its documented normalised response.
Entry rule: numbers only, all in %.

Qu. Lookup: normalised response / DU-4475 / CC(=O)O[C@]1(C(C)=O)CC[C@H]2[C@@H]3C=C(C)C4=CC(=O)CC[C@]4(C)[C@H]3CC[C@@]21C [Megestrol acetate] (1000 nM)
Ans. 102

Qu. Lookup: normalised response / DU-4475 / CC(=O)O[C@]1(C(C)=O)CC[C@H]2[C@@H]3C=C(C)C4=CC(=O)CC[C@]4(C)[C@H]3CC[C@@]21C [Megestrol acetate] (1 nM)
Ans. 97.5

Qu. Lookup: normalised response / DU-4475 / Nc1ccn([C@@H]2O[C@H](CO)[C@@H](O)[C@@H]2O)c(=O)n1 [Cytarabine] (1 nM)
Ans. 100

Qu. Lookup: normalised response / DU-4475 / CS(=O)(=O)c1ccc(C(=O)Nc2ccc(Cl)c(-c3ccccn3)c2)c(Cl)c1 [Vismodegib] (1 nM)
Ans. 98.9

Qu. Lookup: normalised response / DU-4475 / COc1cccc2c1C(=O)c1c(O)c3c(c(O)c1C2=O)C[C@@](O)(C(=O)CO)C[C@@H]3O[C@H]1C[C@H](N)[C@H](O)[C@H](C)O1 [Doxorubicin] (0.1 nM)
Ans. 104

Qu. Lookup: normalised response / DU-4475 / CO[C@H]1C[C@@H]2CC[C@@H](C)[C@@](O)(O2)C(=O)C(=O)N2CCCC[C@H]2C(=O)O[C@H]([C@H](C)C[C@@H]2CC[C@@H](OC(=O)C(C)(CO)CO)[C@H](OC)C2)CC(=O)[C@H](C)/C=C(\C)[C@@H](O)[C@@H](OC)C(=O)[C@H](C)C[C@H](C)/C=C/C=C/C=C/1C [Temsirolimus] (10 nM)
Ans. 74.8

Qu. Lookup: normalised response / DU-4475 / CC[C@]1(O)C[C@@H]2CN(CCc3c([nH]c4ccccc34)[C@@](C(=O)OC)(c3cc4c(cc3OC)N(C)[C@H]3[C@@](O)(C(=O)OC)[C@H](OC(C)=O)[C@]5(CC)C=CCN6CC[C@]43[C@@H]65)C2)C1 [Vinblastine] (0.1 nM)
Ans. 101

Qu. Lookup: normalised response / DU-4475 / Clc1ccc(C(c2ccccc2Cl)C(Cl)Cl)cc1 (stereo not drawn) [Mitotane] (10 nM)
Ans. 103

Qu. Lookup: normalised response / DU-4475 / N#CC[C@H](C1CCCC1)n1cc(-c2ncnc3[nH]ccc23)cn1 [Ruxolitinib] (1000 nM)
Ans. 99.6

Qu. Lookup: normalised response / DU-4475 / S=c1[nH]cnc2nc[nH]c12 [Mercaptopurine] (10 nM)
Ans. 98.5

Qu. Lookup: normalised response / DU-4475 / COc1cccc2c1C(=O)c1c(O)c3c(c(O)c1C2=O)C[C@@](O)(C(=O)CO)C[C@@H]3O[C@H]1C[C@H](N)[C@H](O)[C@H](C)O1 [Doxorubicin] (100 nM)
Ans. 80.7

Qu. Lookup: normalised response / DU-4475 / C=CCNC1=C2C[C@@H](C)C[C@H](OC)[C@H](O)[C@@H](C)/C=C(\C)[C@H](OC(N)=O)[C@@H](OC)/C=C\C=C(/C)C(=O)NC(=CC1=O)C2=O [Tanespimycin] (10 nM)
Ans. 105

Qu. Lookup: normalised response / DU-4475 / CO[C@H]1C[C@@H]2CC[C@@H](C)[C@@](O)(O2)C(=O)C(=O)N2CCCC[C@H]2C(=O)O[C@H]([C@H](C)C[C@@H]2CC[C@@H](OC(=O)C(C)(CO)CO)[C@H](OC)C2)CC(=O)[C@H](C)/C=C(\C)[C@@H](O)[C@@H](OC)C(=O)[C@H](C)C[C@H](C)/C=C/C=C/C=C/1C [Temsirolimus] (0.01 nM)
Ans. 103
